- Test system: lambsquarters (Chenopodium album)
- assay_info: Test D pre-/postemergence controlled growth environment herbicide test
- Format: in vivo
- assay_setup: Preemergence, 250 g ai/ha, scale 0 to 100
quantity_kind: Plant response rating
One number for each entry.

Give me Plant response rating for each of these molecules, listed below.
1. Cc1cc(=O)n(-c2ccc(F)cc2)nc1Oc1ccnc(C(F)(F)F)c1
2. COc1cc(=O)n(-c2ccc(F)cc2)nc1Cc1ccnc(C(F)(F)F)c1
3. Cc1cc(=O)n(-c2ccc(C(F)(F)F)cc2)nc1Cc1ccnc(C(F)(F)F)c1
4. Cc1cc(=O)n(-c2ccc(F)cc2)nc1Cc1ccnc(C(F)(F)F)c1

1. 95
2. 90
3. 90
4. 90

* * *

- System: wheat, spring (spring wheat, Triticum aestivum)
- assay_info: Test D pre-/postemergence controlled growth environment herbicide test
- Format: in vivo
- assay_setup: Preemergence, 250 g ai/ha, scale 0 to 100
For each entry below, report its Plant response rating value.
Numbers only.

Cc1cc(=O)n(-c2ccc(C(F)(F)F)cc2)nc1Cc1ccnc(C(F)(F)F)c1 ... 30

Below are 2 compounds. Give each one its Plant response rating.
1. COc1cc(=O)n(-c2ccc(F)cc2)nc1Cc1ccnc(C(F)(F)F)c1
2. Cc1cc(=O)n(-c2ccc(F)cc2)nc1Oc1ccnc(C(F)(F)F)c1

70
15

Can you share its Plant response rating? I mean this compound: `Cc1cc(=O)n(-c2ccc(F)cc2)nc1Cc1ccnc(C(F)(F)F)c1`
15

* * *

- System: lambsquarters (Chenopodium album)
- assay_info: Test D pre-/postemergence controlled growth environment herbicide test
- Assay type: in vivo
- assay_setup: Postemergence, 31 g ai/ha, scale 0 to 100
Assign Plant response rating to each entry below.
Give bare numbers.

Cc1cc(=O)n(-c2ccc(C(F)(F)F)cc2)nc1Cc1ccnc(C(F)(F)F)c1 [Compound 2] ... 20
Cc1cc(=O)n(-c2ccc(F)cc2)nc1Cc1ccnc(C(F)(F)F)c1 [Compound 1] ... 20
Cc1cc(=O)n(-c2ccc(F)cc2)nc1Oc1ccnc(C(F)(F)F)c1 [Compound 14] ... 60

We now examine a further compound.
Looking for the measured Plant response rating of COc1cc(=O)n(-c2ccc(F)cc2)nc1Cc1ccnc(C(F)(F)F)c1 [Compound 17] , can you help?
10

* * *

- System: velvetleaf (Abutilon theophrasti)
- assay_info: Test A pre-/postemergence greenhouse herbicide test
- Assay type: in vivo
- assay_setup: Postemergence, 500 g ai/ha; 0 to 100 scale (0 no effect, 100 complete control), approx. 10 d
Consider the following partition of reported Plant response rating, Velvetleaf into named classes: bin 1 = under 50, bin 2 = from 50 up to 80, bin 3 = 80 and over

Cc1cc(=O)n(-c2cccc(C(F)(F)F)c2)nc1Oc1ccnc(C(F)(F)F)c1 ... bin 3

Would you mind sorting `Cc1cc(Oc2ccnc(C(F)(F)F)c2)nn(-c2ccc(F)cc2)c1=O` into the appropriate category?
bin 2

Which bin, given its Plant response rating, Velvetleaf, does `O=c1c2c(c(Oc3ccnc(C(F)(F)F)c3)nn1-c1ccc(Cl)cc1)CCCC2` occupy?
bin 1

Exercise: read the entry `Cc1cc(Oc2cccc(C(F)(F)F)n2)nn(-c2ccc(F)cc2)c1=O` and state which class it falls under.
bin 1

Which bin should I file `Cc1cc(=O)n(-c2ccc(F)cc2)nc1Oc1cccc(C(F)(F)F)n1` under?
bin 2

Category of `Cc1cc(=O)n(-c2ccccc2)nc1Oc1ccnc(C(F)(F)F)c1` :
bin 3

Hi there! Could you help me figure out the category for `CN(C)c1cc(=O)n(-c2ccc(F)cc2)nc1Cc1ccnc(C(F)(F)F)c1` please?
bin 2

Band of `Cc1cc(=O)n(-c2ccc(F)cc2)nc1Oc1cc(C(F)(F)F)ccn1` ?
bin 1

Which band does `Cc1cc(Oc2cc(C(F)(F)F)ccn2)nn(-c2ccc(F)cc2)c1=O` fall in?
bin 1
